Give AUC(0-t) for every item shown.
methodDescription: Plasma pharmacokinetics over 2 h after oral ibogaine in wild-type, Abcg2-/- and Abcb1a/1b;Abcg2-/- mice
Assay type: in vivo
experimentalParameters: female, Abcg2-/-, mouse, plasma, po, 10 mg/kg; read-out: AUC0-2h
Experimental: In each experiment, six to seven mice were used per strain. […] To reduce variation in absorption upon oral administration, mice were fasted for 2–3 h before dosing. […] Pharmacokinetic parameters were calculated by non-compartmental methods using the Microsoft Excel menu-driven add-in program PKsolver ([Zhang et al., 2010]). The area under the plasma concentration-time curve (AUC) was calculated with the trapezoidal rule without extrapolating to infinity. […]
Form entry: value (ng·h/mL) — number only.

AUC(0-t) reported for this compound CCC1CC2CC3c4[nH]c5ccc(OC6OC(C(=O)O)C(O)C(O)C6O)cc5c4CCN(C2)C13 (centres unmarked) [Noribogaine glucuronide, noribogaine glucuronide] : 184

AUC(0-t) reported for this compound CCC1CC2CC3c4[nH]c5ccc(O)cc5c4CCN(C2)C13 (centres unmarked) [Noribogaine, 12-hydroxyibogamine] : 381
